# system tested: T1, Fc Receptor-like 5 (FcRL5), full length, overexpressed on 3T3 or Raji cells (human, UniProt Q96RD9 16-977)
# T1 construct: also called 3T3-FcRL5
# T1 sequence: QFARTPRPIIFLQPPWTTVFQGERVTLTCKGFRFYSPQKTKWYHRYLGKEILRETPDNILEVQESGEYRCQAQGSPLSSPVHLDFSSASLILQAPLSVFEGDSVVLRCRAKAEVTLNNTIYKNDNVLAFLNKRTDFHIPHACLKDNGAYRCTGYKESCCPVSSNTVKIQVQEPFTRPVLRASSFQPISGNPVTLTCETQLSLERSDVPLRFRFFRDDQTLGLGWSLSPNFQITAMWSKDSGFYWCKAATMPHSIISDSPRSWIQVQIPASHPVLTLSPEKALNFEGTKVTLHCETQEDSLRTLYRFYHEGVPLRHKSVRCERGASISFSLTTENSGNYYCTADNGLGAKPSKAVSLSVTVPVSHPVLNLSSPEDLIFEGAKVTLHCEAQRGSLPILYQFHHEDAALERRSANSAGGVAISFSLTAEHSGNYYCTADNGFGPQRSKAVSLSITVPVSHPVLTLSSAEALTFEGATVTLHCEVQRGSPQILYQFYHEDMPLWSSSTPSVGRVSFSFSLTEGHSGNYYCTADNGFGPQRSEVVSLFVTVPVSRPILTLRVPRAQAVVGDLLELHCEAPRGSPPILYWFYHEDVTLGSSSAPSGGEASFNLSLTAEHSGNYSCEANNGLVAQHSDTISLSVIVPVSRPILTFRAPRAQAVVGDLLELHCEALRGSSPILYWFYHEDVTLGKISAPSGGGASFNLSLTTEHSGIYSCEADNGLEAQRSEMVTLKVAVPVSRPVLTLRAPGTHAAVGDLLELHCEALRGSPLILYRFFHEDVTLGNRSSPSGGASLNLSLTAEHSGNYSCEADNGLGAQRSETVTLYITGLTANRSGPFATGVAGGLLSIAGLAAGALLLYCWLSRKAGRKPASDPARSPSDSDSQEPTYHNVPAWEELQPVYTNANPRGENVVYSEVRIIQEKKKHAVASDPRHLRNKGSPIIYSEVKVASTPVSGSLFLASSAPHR
# protocol details: phage clone screening on cells
measured attribute: binding result

1. ET200-017 (scFv, screened as phage clone; entry is VL-linker-VH-His tag-HA tag) scFv: SYVLTQPPSVSVAPGKTARITCGGNNIGSKSVHWYQQKPGQAPVLVVYDDSDRPSGIPERFSGSNSGNTATLSISRVEAGDEADYYCQVWDSSSDHTVFGTGTKVTVLGSRGGGGSGGGGSGGGGSLEMAQVQLQQWGAGLLKPSETLSLTCAVYGGSFSGYYWSWIRQPPGKGLEWIGEINHSGSTNYNPSLKSRVTISVDTSKNQFSLKLSSVTAADTAVYYCARYYPGMDMWGQGTLVTVSSTSGQAGQHHHHHHGAYPYDVPDYAS | binds
2. ET200-097 (scFv, screened as phage clone; entry is VL-linker-VH-His tag-HA tag) scFv: LPVLTQPPSVSVSPGQTAIITCSGDKLGEKYVSWYQQKPGQSPVLVIDQDTRRPSGIPERFSGSNSGTTATLTISGTQAMDEADYYCQAWDRGVVFGGGTKLTVLGSRGGGGSGGGGSGGGGSLEMAEVQLVESGGDLVQPGRSLRLSCAASGFTFNDYAMHWVRQAPGKGLEWVSGISWSGNNIGYADSVKGRFTISRDNAKNSLYLQMNSLRAEDTALYYCAKDSIRYGITWGGFDYWGQGTLVTVSSTSGQAGQHHHHHHGAYPYDVPDYAS | binds
3. ET200-041 (scFv, screened as phage clone; entry is VL-linker-VH-His tag-HA tag) scFv: NFMLTQPHSVSGSPGKTVTISCTGSSGSIADNFVQWYQQRPGGVPTTVIFNDDERPSGVPDRFSGSIDTSSNSASLTISGLKTEDEADYYCQSYDNNNRGVFGGGTKLTVLGSRGGGGSGGGGSGGGGSLEMAQVQLVQSGAEVKKPGSSVKVSCKASGGTFSSYAISWVRQAPGQGLEWMGWMNPNSGNTGYAQKFQGRVTMTRNTSISTAYMELSNLRSEDTAVYYCARYYSYGYDWGQGTLVTVSSTSGQAGQHHHHHHGAYPYDVPDYAS | binds
4. ET200-038 (scFv, screened as phage clone; entry is VL-linker-VH-His tag-HA tag) scFv: QSVLTQPPSVSGAPGQRVTISCTGSSSNIGAGFDVHWYQLLPGTAPKLLIYANSNRPSGVPDRFSGSKSGTSASLAITGLLAEDEADYYCQSYDSSLSGVVFGGGTKLTVLGSRGGGGSGGGGSGGGGSLEMAQVQLVQSGAEVKKPGSSVKVSCKASGGTFSSYAISWVRQAPGQGLEWMGGIIPIFGTANYAQKFQGRVTITADESTSTAYMELSSLRSEDTAVYYCARGASFDRHDNWGQGTLVTVSSTSGQAGQHHHHHHGAYPYDVPDYAS | binds
5. ET200-042 (scFv, screened as phage clone; entry is VL-linker-VH-His tag-HA tag) scFv: QSVVTQPPSVSGAPGQTVTISCTGGSSNIGTGYFVNWYQQVPGKAPKLLILGNNNRPSGVPDRLSGSTSGTSASLAITGLQAEDEGTYYCQSYDSSLSGYVFGTGTKVTVLGSRGGGGSGGGGSGGGGSLEMAQVQLQQSGPGLVKPSQTLSLTCGISGDSVSTNSVAWHWIRQSPSRGLEWLGRTYYRSKWSNDYGVSVKSRITIIPDTSKNQFSLQLNSVTPEDTAVYYCARSSSWYQIFDYWGQGTLVTVSSTSGQAGQHHHHHHGAYPYDVPDYAS | binds

Dear colleague, I am looking for the recorded binding result of the following binder: ET200-011 (scFv, screened as phage clone; entry is VL-linker-VH-His tag-HA tag) scFv: QSVVTQPPSVSAAPGQRVTISCSGSSSNISIYDVSWYQQLPGTAPKLLIYGNNKRPSGIADRFSGSTSGTSATLGITGLQTGDEADYYCGTWDDSLSGGVFGGGTKLTVLGSRGGGGSGGGGSGGGGSLEMAQMQLVQSGAEVKKPGSSVKVSCEASGGTLSSYAINWVRQAPGQGLEWMGGIIPMFGTAHYAQKFQGRVTITADESTKTAYMELSSLRSEDTAVYYCARGVHYASFDHWGQGTLVTVSSTSGQAGQHHHHHHGAYPYDVPDYAS
binds

Dear colleague, I am looking for the recorded binding result of the following binder: ET200-104 (scFv, screened as phage clone; entry is VL-linker-VH-His tag-HA tag) scFv: NFMLTQPHSVSESPGKTVTISCTRSSGSIASNYVQWYQQRPGSAPTTVIYEDNQRPSGVPDRFSGSIDSSSNSASLTISGLKTEDEADYYCQSYDSSNVVFGGGTKVTVLGSRGGGGSGGGGSGGGGSLEMAEVQLVESGGGLVQPGGSLRLSCAASGFTFSSYEMNWVRQAPGKGLEWVSYISSSGSTIYYADSVKGRFTISRDNAKNSLYLQMNSLRAEDTAVYYCARWDYGMDVWGQGTTVTVSSTSGQAGQHHHHHHGAYPYDVPDYAS
binds

Dear colleague, I am looking for the recorded binding result of the following binder: ET200-106 (scFv, screened as phage clone; entry is VL-linker-VH-His tag-HA tag) scFv: SYELTQPPAASGTPGQRVTISCSGGVSNIGSGALNWYQQLPGTAPKLLIYSYNQRPSGVSDRFSGSRSATSASLAISGLQSEDEADYYCATWDDSVNGWVFGGGTKLTVLGSRGGGGSGGGGSGGGGSLEMAEVQLVESGAEVKKPGDSVKVSCKPSGYNFLNYGINWVRQAPGQGLEWMGWISTYTGNTNYAQKLQGRVTFTTDTSTSTAYMEMRSLRSDDTAVYYCARQQGGGWYDVWGQGTLVTVSSTSGQAGQHHHHHHGAYPYDVPDYAS
binds

Dear colleague, I am looking for the recorded binding result of the following binder: ET200-002 (scFv, screened as phage clone; entry is VL-linker-VH-His tag-HA tag) scFv: NFMLTQPHSVSESPGKTVTISCTRSSGSIASNYVQWYQQRPGSAPTTVIYEDNQRPSGVPDRFSGSIDSSSNSASLTISGLKTEDEADYYCQSYDSSNSVVFGGGTKLTVLGSRGGGGSGGGGSGGGGSLEMAQVQLVQSGTEVKKPGASVRVACKASGYPFNKYDINWVRQAPGQGLEWMGGIIPIFRTTNYAQKFQGRVTITADESTSTAYMELSSLRSEDTAVYYCAREWFYWDIWGQGTLVTVSSTSGQAGQHHHHHHGAYPYDVPDYAS
binds
